# SUBJECT OF TEST: human recombinant HDAC6 (Homo sapiens)
# Construct: purchased Calbiochem 382180
# Sequence (Q9UBN7 1-1215): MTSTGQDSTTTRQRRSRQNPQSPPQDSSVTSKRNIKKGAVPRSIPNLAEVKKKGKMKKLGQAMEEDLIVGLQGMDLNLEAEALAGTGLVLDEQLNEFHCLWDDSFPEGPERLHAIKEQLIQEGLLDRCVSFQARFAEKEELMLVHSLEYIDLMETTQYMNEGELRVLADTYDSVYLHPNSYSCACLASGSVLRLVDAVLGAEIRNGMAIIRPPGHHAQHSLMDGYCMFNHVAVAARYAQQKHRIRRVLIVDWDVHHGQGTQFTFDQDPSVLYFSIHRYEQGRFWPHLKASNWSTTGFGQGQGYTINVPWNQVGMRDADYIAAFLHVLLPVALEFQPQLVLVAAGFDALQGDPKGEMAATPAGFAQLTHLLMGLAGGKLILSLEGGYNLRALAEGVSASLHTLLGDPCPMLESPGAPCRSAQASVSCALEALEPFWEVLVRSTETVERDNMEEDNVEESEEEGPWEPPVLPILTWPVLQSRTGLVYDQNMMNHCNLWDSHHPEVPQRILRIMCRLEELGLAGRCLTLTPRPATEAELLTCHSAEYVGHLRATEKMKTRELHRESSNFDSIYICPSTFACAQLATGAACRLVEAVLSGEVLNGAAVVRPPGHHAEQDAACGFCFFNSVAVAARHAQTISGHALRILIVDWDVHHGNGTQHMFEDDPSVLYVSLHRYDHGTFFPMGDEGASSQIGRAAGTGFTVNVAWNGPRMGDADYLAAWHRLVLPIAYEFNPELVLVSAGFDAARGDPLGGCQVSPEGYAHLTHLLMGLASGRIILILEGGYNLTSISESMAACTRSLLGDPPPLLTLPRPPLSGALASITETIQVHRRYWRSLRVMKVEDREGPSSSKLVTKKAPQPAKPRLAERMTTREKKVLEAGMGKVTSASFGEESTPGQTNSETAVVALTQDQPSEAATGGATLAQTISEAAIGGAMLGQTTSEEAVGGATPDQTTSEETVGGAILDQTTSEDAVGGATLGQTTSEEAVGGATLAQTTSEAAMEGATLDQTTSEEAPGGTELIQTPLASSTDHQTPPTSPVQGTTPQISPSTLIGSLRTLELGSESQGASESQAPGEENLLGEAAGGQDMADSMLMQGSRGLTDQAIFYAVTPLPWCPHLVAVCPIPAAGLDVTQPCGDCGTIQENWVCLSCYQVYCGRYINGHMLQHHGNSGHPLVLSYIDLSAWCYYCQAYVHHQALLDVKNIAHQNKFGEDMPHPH
# ASSAY REMARKS: HDAC6 enzyme activity inhibition assay (HDAC Fluorimetric Drug Discovery Kit)
# Format: biochemical
# STATED CONDITIONS: HDAC6 over HDAC1
MEASURED PARAMETER: HDAC6 selectivity (fold)

Worked cases, HDAC6 selectivity (fold) given:
- CHEMICAL STRUCTURE: "O=C(N1CCS(=O)(=O)CC1)N(Cc1ccc(-c2nnc(C(F)(F)F)o2)cc1)c1cccc(C(F)(F)F)n1"
  READING UNIT: "fold"
  HDAC6 selectivity (fold): 17
- CHEMICAL STRUCTURE: "O=C(N1CCN(Cc2ccccc2)CC1)N(Cc1ccc(-c2nnc(C(F)(F)F)o2)cc1)c1ccccc1"
  READING UNIT: "fold"
  HDAC6 selectivity (fold): 12
- CHEMICAL STRUCTURE: "O=C(N1CCOCC1)N(Cc1ccc(-c2nnc(C(F)F)o2)cn1)c1ccccc1"
  READING UNIT: "fold"
  HDAC6 selectivity (fold): 549
- CHEMICAL STRUCTURE: "CN(C)[C@H]1CCN(C(=O)N(Cc2ccc(-c3nnc(C(F)F)o3)cn2)c2ccc(F)c(Cl)c2)C1"
  READING UNIT: "fold"
  HDAC6 selectivity (fold): 192
- CHEMICAL STRUCTURE: "CCN1CCN(C(=O)N(Cc2ccc(-c3nnc(C(F)(F)F)o3)cc2)c2cccc(OC)c2)CC1"
  READING UNIT: "fold"
  HDAC6 selectivity (fold): 28
- CHEMICAL STRUCTURE: "O=C(NCCN1CCCOCC1)N(Cc1ccc(-c2nnc(C(F)F)o2)cc1F)c1ccccc1"
  READING UNIT: "fold"
  HDAC6 selectivity (fold): 207
- CHEMICAL STRUCTURE: "O=C(N1CCOCC1)N(Cc1ccc(-c2nnc(C(F)(F)F)o2)cc1)c1cccc(F)c1"
  READING UNIT: "fold"
  HDAC6 selectivity (fold): 71

a. COc1ccc(N(Cc2ccc(-c3nnc(C(F)F)o3)cc2F)C(=O)N2CCN(C3COC3)CC2)cc1
b. O=C(N1CCOCC1)N(Cc1ccc(-c2nnc(C(F)(F)F)o2)cc1F)c1ccc(F)cc1F
Of a and b , whose reported HDAC6 selectivity (fold) is the larger number? Selection: enter the item's label.
b
(b: 177 fold, a: 58 fold)

###

# SUBJECT OF TEST: human recombinant HDAC6 (Homo sapiens)
# Construct: purchased Calbiochem 382180
# ASSAY REMARKS: HDAC6 enzyme activity inhibition assay (HDAC Fluorimetric Drug Discovery Kit)
# Type: biochemical
# STATED CONDITIONS: HDAC6 over HDAC1
MEASURED PARAMETER: HDAC6 selectivity (fold)

- CHEMICAL STRUCTURE: "COc1ccccc1N(Cc1ccc(-c2nnc(C(F)(F)F)o2)cc1F)C(=O)N1CCS(=O)(=O)CC1"
  HDAC6 selectivity (fold): 167
- CHEMICAL STRUCTURE: "O=C(N1CCOCC1)N(Cc1ccc(-c2nnc(C(F)(F)F)o2)cn1)c1ccc(F)cc1"
  HDAC6 selectivity (fold): 170
- CHEMICAL STRUCTURE: "O=C(N1CCNCC1)N(Cc1ccc(-c2nnc(C(F)(F)F)o2)cc1)c1ccccc1"
  HDAC6 selectivity (fold): 180
- CHEMICAL STRUCTURE: "O=C(NCCN1CCN(CCO)CC1)N(Cc1ccc(-c2nnc(C(F)F)o2)cc1F)c1ccccc1"
  HDAC6 selectivity (fold): 108

A. CCCN(Cc1ccc(-c2nnc(C(F)(F)F)o2)cc1)C(=O)N1CCOCC1
B. O=C(NCCN1CCOCC1)N(Cc1ccc(-c2nnc(C(F)F)o2)cc1F)c1ccccc1
C. CCN(CCNC(=O)N(Cc1ccc(-c2nnc(C(F)F)o2)cc1F)c1ccccc1)Cc1ccccc1
D. COc1cccc(N(Cc2ccc(-c3nnc(C(F)F)o3)cc2)C(=O)N2CCS(=O)(=O)CC2)c1
// smallest HDAC6 selectivity (fold) at index 0, largest at the end Answer by listing the labels in the requested order.
A, C, B, D
(A: 17 fold, C: 37 fold, B: 96 fold, D: 145 fold)

###

# SUBJECT OF TEST: human recombinant HDAC1 (Homo sapiens, UniProt Q13547)
# Construct: purchased Enzo Life Science BML-SE456
# Sequence (Q13547 whole entry): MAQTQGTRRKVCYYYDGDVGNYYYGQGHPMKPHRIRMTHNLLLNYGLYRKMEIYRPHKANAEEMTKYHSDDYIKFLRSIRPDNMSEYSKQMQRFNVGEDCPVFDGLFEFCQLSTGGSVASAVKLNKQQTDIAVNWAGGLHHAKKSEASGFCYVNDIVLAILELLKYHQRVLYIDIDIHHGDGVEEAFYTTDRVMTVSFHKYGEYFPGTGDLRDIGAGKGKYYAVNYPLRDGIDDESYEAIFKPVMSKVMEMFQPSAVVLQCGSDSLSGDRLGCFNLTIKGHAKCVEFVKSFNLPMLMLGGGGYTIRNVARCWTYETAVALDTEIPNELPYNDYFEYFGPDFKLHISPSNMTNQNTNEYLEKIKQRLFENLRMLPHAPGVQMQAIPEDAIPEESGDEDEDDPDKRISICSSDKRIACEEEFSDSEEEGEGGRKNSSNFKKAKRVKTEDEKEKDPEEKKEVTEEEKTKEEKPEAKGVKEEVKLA
# ASSAY REMARKS: HDAC1 enzyme activity inhibition assay (HDAC Fluorimetric Drug Discovery Kit)
# Format: biochemical
# STATED CONDITIONS: human recombinant HDAC1, Fluor de Lys substrate 10 μM, 30° C. 60 minutes
MEASURED PARAMETER: IC50 (µM)

Worked cases, IC50 given:
- COMPOUND: "COc1ccc(N(Cc2ccc(-c3nnc(C(F)(F)F)o3)cc2)C(=O)N2CCS(=O)(=O)CC2)cc1 [Compound 21390]"
  IC50, µM: 5.28
- COMPOUND: "O=C(N1CCOCC1)N(Cc1ccc(-c2nnc(C(F)F)o2)cn1)c1ccc(F)cc1 [Compound 21839]"
  IC50, µM: 56.7
- COMPOUND: "O=C(N1CC[C@@H](O)C1)N(Cc1ccc(-c2nnc(C(F)(F)F)o2)cc1F)c1ccc(F)c(Cl)c1 [Compound 21664]"
  IC50, µM: 17.1

P. O=C(N1CCS(=O)(=O)CC1)N(Cc1ccc(-c2nnc(C(F)(F)F)o2)cc1)c1cccc(-c2ccoc2)c1 [Compound 21435]
Q. CCN1CCN(C(=O)N(Cc2ccc(-c3nnc(C(F)(F)F)o3)cc2)c2cccc(OC)c2)CC1 [Compound 21871]
R. O=C(N1CCS(=O)(=O)CC1)N(Cc1ccc(-c2nnc(C(F)(F)F)o2)cc1F)c1ccc(CN2CCN(C3COC3)CC2)cc1 [Compound 21898]
S. CCN1CCN(C(=O)N(Cc2ccc(-c3nnc(C(F)(F)F)o3)cc2F)c2ccc(Cl)cc2)CC1 [Compound 21863]
Given 4 compounds, produce a descending ranking by IC50. Answer by listing the labels in the requested order.
R, S, Q, P
(R: 40.6 µM, S: 25.8 µM, Q: 9.13 µM, P: 3.38 µM)

###

# SUBJECT OF TEST: human recombinant HDAC6 (Homo sapiens, UniProt Q9UBN7)
# Construct: purchased Calbiochem 382180
# Sequence (Q9UBN7 1-1215): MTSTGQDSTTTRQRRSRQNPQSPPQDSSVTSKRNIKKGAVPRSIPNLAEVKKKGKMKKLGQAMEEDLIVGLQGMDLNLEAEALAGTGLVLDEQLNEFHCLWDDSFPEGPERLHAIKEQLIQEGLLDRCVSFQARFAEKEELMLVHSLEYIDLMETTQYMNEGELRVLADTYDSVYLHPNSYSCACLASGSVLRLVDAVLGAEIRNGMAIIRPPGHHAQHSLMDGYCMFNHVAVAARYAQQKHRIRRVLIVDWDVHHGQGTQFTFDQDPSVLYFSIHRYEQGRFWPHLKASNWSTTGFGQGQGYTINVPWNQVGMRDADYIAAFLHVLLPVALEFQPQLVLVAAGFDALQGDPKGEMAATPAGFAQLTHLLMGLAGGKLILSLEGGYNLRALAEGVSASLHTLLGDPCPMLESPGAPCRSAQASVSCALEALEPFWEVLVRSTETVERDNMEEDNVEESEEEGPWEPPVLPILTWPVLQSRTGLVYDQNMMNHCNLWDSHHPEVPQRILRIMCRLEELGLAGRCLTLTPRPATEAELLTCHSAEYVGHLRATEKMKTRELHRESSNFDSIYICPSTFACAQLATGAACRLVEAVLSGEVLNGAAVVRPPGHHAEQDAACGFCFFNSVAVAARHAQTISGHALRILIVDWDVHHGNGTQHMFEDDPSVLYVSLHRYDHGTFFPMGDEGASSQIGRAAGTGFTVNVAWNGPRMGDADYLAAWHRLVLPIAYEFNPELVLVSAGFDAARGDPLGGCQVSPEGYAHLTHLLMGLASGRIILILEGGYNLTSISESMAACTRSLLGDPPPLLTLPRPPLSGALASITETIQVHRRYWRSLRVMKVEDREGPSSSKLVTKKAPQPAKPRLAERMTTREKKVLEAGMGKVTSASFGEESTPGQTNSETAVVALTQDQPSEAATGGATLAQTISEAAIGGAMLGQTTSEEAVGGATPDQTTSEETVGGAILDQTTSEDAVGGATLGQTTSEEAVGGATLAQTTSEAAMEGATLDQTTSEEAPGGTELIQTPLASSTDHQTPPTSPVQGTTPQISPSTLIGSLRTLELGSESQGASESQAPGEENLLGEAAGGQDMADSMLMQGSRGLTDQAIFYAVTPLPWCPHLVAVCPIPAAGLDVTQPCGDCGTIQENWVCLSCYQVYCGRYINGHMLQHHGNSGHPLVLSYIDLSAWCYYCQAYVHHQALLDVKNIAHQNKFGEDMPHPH
# ASSAY REMARKS: HDAC6 enzyme activity inhibition assay (HDAC Fluorimetric Drug Discovery Kit)
# Type: biochemical
# STATED CONDITIONS: HDAC6 over HDAC1
MEASURED PARAMETER: HDAC6 selectivity (fold)

Worked cases, HDAC6 selectivity (fold) given:
- COMPOUND: "O=C(N1CC[C@H](F)C1)N(Cc1ccc(-c2nnc(C(F)(F)F)o2)cc1F)c1ccc(F)c(Cl)c1 [Compound 21666]"
  ENDPOINT VALUE: 55
- COMPOUND: "O=C(N1CCS(=O)(=O)CC1)N(Cc1ccc(-c2nnc(C(F)F)o2)cn1)c1ccccc1F [Compound 21625]"
  ENDPOINT VALUE: 422
- COMPOUND: "CCN1CCN(C(=O)N(Cc2ccc(-c3nnc(C(F)F)o3)cc2F)c2cccc(Cl)c2)CC1 [Compound 21878]"
  ENDPOINT VALUE: 522

A. Cn1ncc2ccc(N(Cc3ccc(-c4nnc(C(F)F)o4)cc3F)C(=O)N3CCOCC3)cc21 [Compound 21724]
B. CCN1CCN(C(=O)N(Cc2ccc(-c3nnc(C(F)F)o3)cc2F)c2ccc(F)cc2Cl)CC1 [Compound 21650]
C. Cc1nnc(N(Cc2ccc(-c3nnc(C(F)F)o3)cc2F)C(=O)N2CCS(=O)(=O)CC2)s1 [Compound 21979]
D. O=C(N1CCS(=O)(=O)CC1)N(Cc1ccc(-c2nnc(C(F)(F)F)o2)cc1)c1ccc(-c2ccc3c(c2)OCO3)cc1 [Compound 21493]
Given 4 compounds, produce a descending ranking by HDAC6 selectivity (fold). Answer by listing the labels in the requested order.
A, B, C, D
